System: K4 kissing-loop RNA reporter
Assay: apparent KD of K4 kissing-loop reporter; higher = weaker reporter binding
Details: Eterna round: R107; input ligand: theophylline 20 uM
I would appreciate it if you labelled entries Met when apparent KD of K4 kissing-loop reporter is 200 nM or higher, otherwise Not met.

Consider the following illustrative entries.
RESIDUE SEQUENCE: GGGUCAGCGCGAAGGAGCGCCCUGACAGGUUGCUGCCGUGGGCAGUGAUGUUGCUCAGUCCGGCAGGUAGGUCGCGUGCUGACCC
SYSTEM NAME: K4 kissing-loop RNA reporter
CATEGORY: Not met

RESIDUE SEQUENCE: CGCAAUAUUACGGAGUGAUGUUUCGUAGUCCGAGGACCGGUACGGCCGCCACUCGCUGGCGUUGGCCCAUAGACCGACGGAAUCG [theeternabot_sameState_KL_Trp_A_39]
SYSTEM NAME: K4 kissing-loop RNA reporter
CATEGORY: Met

RESIDUE SEQUENCE: AACGUUUUGAGAAGGAGCGCGUUAAGCAGUGAUGUUGCUUUAUUAUAUUUACUACAUAUUUCGCAGGUAGGUCGCUCAAUACGUA [JR_Nu_SSArginiB_Sub025]
SYSTEM NAME: K4 kissing-loop RNA reporter
CATEGORY: Not met

RESIDUE SEQUENCE: AAGCAGUCACUCGAACCCAUCGAAGAUGGGCGAGGACCGGUACGGCCGCCACUCGGAGUGAUGUUCCGAAGACUGCAAAAUAAAA
SYSTEM NAME: K4 kissing-loop RNA reporter;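 note: bound reporter read as fluorescence of individual clusters on recovered sequencing chips by microscopy, with normalized cluster intensities fitted with a binding model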
CATEGORY: Met

Challenge: Is apparent KD of K4 kissing-loop reporter for GGUUUAUAGGAGGAUACCAGUACGAAUAAAGUACAUUAAUAGUAGAGUGAUGUUCUAAAGUACCCUUGGCAGCUUAGAGUAAGUU [#18 K4 Theophylline B Exclusion] at or above 200 nM?
Response given: Met

Challenge: Next: GAAAGAAAGAAUGAUACCAGACACCCGAGUGAUGUUCGGAGCAGAGUGAUGUUCUUUUAAGUCCCUUGGCAGCAUAAAAGAAAAG [whbob_SS_Theo_B_sa82]
Response given: Not met
